Target: CDK2 (Homo sapiens, UniProt P24941)
Assay: Phage Library Screening with NGS, CDK2
Assay type: binding
Set-up: Full length CDK2 (residues 1-298) with an N-terminal GST-3C-6×his-TEV tag; GST-3C-6×his-TEV (N, cleaved yes); made in house; host or cells: Sf9 (Bac-to-Bac baculovirus)
Details: CDK2, target concentration 30
Numbered stars: 1 amine (or outer) side, 2 acyl side, 3 side chain; on linkers, the order of the positions; unused ones are H or OH. Bridge positions count the residues as written; N and C are the ends. Ends that are not written are not given here. Phenylene(1,4-NHCOCH2)2 = O=C(C[*:1])Nc1ccc(NC(=O)C[*:2])cc1
Reported endpoint: phage screen counts, Target Concentration 30

Worked cases, answers included:
Seq text	Measured result
PCLDAFFYCVT (linker 2-9 via Phenylene(1,4-NHCOCH2)2 (inferred))	0
DPAWWVCAVAAIECQEY (linker 7-14 via Phenylene(1,4-NHCOCH2)2 (inferred))	47
ECLSAFFTCV (linker 2-9 via Phenylene(1,4-NHCOCH2)2 (inferred))	0

Query sequence follows.
Exercise: Provide measured phage screen counts, Target Concentration 30 value, entry: DPAWWVCAIAAIECSDV (linker 7-14 via Phenylene(1,4-NHCOCH2)2 (inferred); not fully specified (N-terminus, C-terminus))
Key: 634
